I'd be grateful if you could share measured kon for these entries.
system-under-test: T1, Murine OPG-Fc (mouse, UniProt O08712 22-401)
T1 sequence (looked up): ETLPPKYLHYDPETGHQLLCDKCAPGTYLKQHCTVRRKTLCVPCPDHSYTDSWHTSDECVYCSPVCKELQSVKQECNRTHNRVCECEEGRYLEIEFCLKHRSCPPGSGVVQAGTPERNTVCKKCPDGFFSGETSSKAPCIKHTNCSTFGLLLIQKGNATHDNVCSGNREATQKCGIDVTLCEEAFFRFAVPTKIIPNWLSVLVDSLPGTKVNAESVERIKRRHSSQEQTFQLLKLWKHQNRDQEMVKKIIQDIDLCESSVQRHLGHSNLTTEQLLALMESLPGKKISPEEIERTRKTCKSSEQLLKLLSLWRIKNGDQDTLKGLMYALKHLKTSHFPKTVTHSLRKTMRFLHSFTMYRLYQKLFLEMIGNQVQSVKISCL
method-description: SPR
Could you give me the number in M⁻¹ s⁻¹? Just the number is fine.

Task item: // kon lookup, key: RANKL_Q236P (ligand, mouse, UniProt O35235 160-316, looked up) EAQPFAHLTINAASIPSGSHKVTLSSWYHDRGWAKISNMTLSNGKLRVNQDGFYYLYANICFRHHETSGSVPTDYLPLMVYVVKTSIKIPSSHNLMKGGSTKNWSGNSEFHFYSINVGGFFKLRAGEEISIQVSNPSLLDPDQDATYFGAFKVQDID
Reply: 1.1e+07

Task item: What do you have for RANKL_Q236A (ligand, mouse, UniProt O35235 160-316, looked up) EAQPFAHLTINAASIPSGSHKVTLSSWYHDRGWAKISNMTLSNGKLRVNQDGFYYLYANICFRHHETSGSVPTDYLALMVYVVKTSIKIPSSHNLMKGGSTKNWSGNSEFHFYSINVGGFFKLRAGEEISIQVSNPSLLDPDQDATYFGAFKVQDID ?
Reply: 1.6e+07

Task item: What do you have for RANKL_WT (mouse soluble RANKL, aa 160–316) (ligand, UniProt O35235 160-316, looked up) EAQPFAHLTINAASIPSGSHKVTLSSWYHDRGWAKISNMTLSNGKLRVNQDGFYYLYANICFRHHETSGSVPTDYLQLMVYVVKTSIKIPSSHNLMKGGSTKNWSGNSEFHFYSINVGGFFKLRAGEEISIQVSNPSLLDPDQDATYFGAFKVQDID ?
Reply: 1.8e+07

Task item: What do you have for RANKL_Q236S (ligand, mouse, UniProt O35235 160-316, looked up) EAQPFAHLTINAASIPSGSHKVTLSSWYHDRGWAKISNMTLSNGKLRVNQDGFYYLYANICFRHHETSGSVPTDYLSLMVYVVKTSIKIPSSHNLMKGGSTKNWSGNSEFHFYSINVGGFFKLRAGEEISIQVSNPSLLDPDQDATYFGAFKVQDID ?
Reply: 1.4e+07
